- measurement-description: passive permeability, PAMPA, ADME assay (AID 1508612)
- setup-conditions: pH 7.4, 30.0 min, 50.0 µM
Catalogue of molecules with associated Papp
experimental-readout: Papp (×10⁻⁶ cm/s)

CCN(CC)CCNC(=O)c1c(C)[nH]c(/C=C2\C(=O)Nc3ccc(F)cc32)c1C    235
Cc1ccccc1NC(=O)Nc1cccs1    106
CC(C)c1ccc2oc3nc(N)c(C(=O)O)cc3c(=O)c2c1    9.71
COc1ccccc1-c1csc(N2CCC(C(N)=O)CC2)n1    693
CN1C(=O)C(=O)N2C(=C[C@]3(c4c[nH]c5ccccc45)c4ccccc4N[C@H]23)C1=O    209
C=Cc1ccc(Cn2c(C(=O)O)c(CNCc3ccccc3)c3ccc(OC)cc32)cc1    900
O=c1cc(/C=C/c2c(F)cccc2Cl)[nH]c2ccccc12    205
CCn1cc(C(=O)N2CCN(c3cccc(Cl)c3)CC2)c2cc(OC)c(OC)cc2c1=O    833

* * *

- measurement-description: passive permeability, PAMPA, ADME assay (AID 1508612)
- setup-conditions: pH 7.4, 30.0 min, 50.0 µM
Label Satisfied for high-side Papp (at or above 80 ×10⁻⁶ cm/s) and Not satisfied for low-side Papp (below it).

O=C(c1cc2ccccc2[nH]1)N1CCc2c(n(Cc3cccnc3)n(CCc3ccccc3)c2=O)C1    Satisfied
O=C(Nc1nc(-c2ccccc2)cs1)c1ccncc1NS(=O)(=O)c1cccs1    Satisfied
CC(=O)NCCNC(=O)c1ccc(-c2ncc3cnc(-c4cccc(F)c4)cn23)cc1    Not satisfied
COc1ccc(-c2[nH]nc3ncc(-c4ccc(CO)cc4)nc23)cc1F    Satisfied
CC1=C(C(=O)Nc2ccc(Cl)cc2)C(c2ccccc2C)n2ncc(C(=O)Nc3ccc(C)cc3)c2N1 (centres undefined)    Not satisfied
Cc1ccc(S(=O)(=O)Nc2cnccc2C(=O)Nc2ccc(S(=O)(=O)Nc3nccs3)cc2)cc1    Not satisfied
Cc1c(Cl)cccc1-n1ncc(C(=O)Nc2ccc(Br)cc2F)c1C1CCNCC1    Satisfied
COc1ccc2c(ccn2CCC(=O)Nc2ccc3c(c2)C(=O)N2CCC[C@H]2C(=O)N3)c1    Not satisfied
CC(=O)NC(c1cccs1)c1cc(Br)c2cccnc2c1O (centres undefined)    Not satisfied

* * *

Measured Papp values are reported for all entries that follow.
- measurement-description: passive permeability, PAMPA, ADME assay (AID 1508612)
- setup-conditions: pH 7.4, 30.0 min, 50.0 µM
experimental-readout: Papp (×10⁻⁶ cm/s)

Cn1nnnc1Sc1ncnc2scc(-c3cc4ccccc4o3)c12    936
Cc1ccc(/C=C/c2nc3ccccc3n2S(=O)(=O)c2cccc(Cl)c2)cc1    11.5
CSc1ccc(/C=C/c2nc3ccccc3n2S(=O)(=O)c2cccc(Cl)c2)cc1    911
Cc1noc(C)c1-c1ccc2ncnc(NCc3cccc(Cl)c3)c2c1    970
Cc1noc(C)c1-c1ccc2ncnc(N3CCC(C(=O)O)CC3)c2c1    1.5
O=C1Nc2ccc(I)cc2C1=Cc1cc(Br)c(O)c(Br)c1    150
Cc1cc(C)nc(NC(=S)N2CCN(c3ccncc3)CC2)c1    450
Cc1ccc(S(=O)(=O)Nc2ccccc2C(=O)Nc2nc(-c3ccc(Cl)cc3)cs2)cc1    16.6
COc1cc(Nc2nc(-c3ccncc3)nc3ccccc23)ccc1Cl    19.8
O=C(O)c1ccnc2cc(C(OCC3CCC(F)(F)CC3)c3ccccc3Cl)[nH]c12 (stereo unspecified)    75.6
CCOP(=O)(Cc1ccc(C(=O)Nc2ccc(Br)cc2C#N)cc1)OCC    255
Cc1ccc(C(=O)Nc2cccc(C(F)(F)F)c2)cc1Nc1nc(-c2cccnc2)nc2c1cnn2C    283
CN(C)CCNC(=O)c1nc(-c2ccccc2)cc2[nH]ccc12    838
Cc1nnn(C)c1-c1cnc2c3ccc(C(C)(C)O)cc3n([C@H](c3ccccc3)C3CCOCC3)c2c1    746
O=C1CCCC2=C1C(c1[nH]ncc1Cl)N=C(Nc1nc3cc([S+](=O)([O-])N4CCOCC4)ccc3o1)N2 (stereo unspecified)    169
Cc1ccc(S(=O)(=O)Nc2cnccc2C(=O)Nc2nc(-c3ccccc3Cl)cs2)cc1    46
Cc1ccnc(N=C(N)N2CCN(c3cccc(C(F)(F)F)c3)CC2)c1    383
CC(C)(N)CNC(=O)CC1CCC2(CC1)OOC1(O2)C2CC3CC(C2)CC1C3 (stereo unspecified)    488
Cc1ccccc1-c1nc(CN2CCC(C(=O)NCCCN3CCOCC3)CC2)c(C)o1    432
CCN(c1cc(C#CCN2CCOCC2)cc(C(=O)NCc2c(C)cc(C)[nH]c2=O)c1C)C1CCC(N(C)CCOC)CC1 (stereo unspecified)    6.74
COc1cc(-c2ccnc3c2c(C)nn3-c2cccc(C(F)(F)F)c2)ccc1O    93.1
Cc1ccc(S(=O)(=O)Nc2ccccc2C(=O)Nc2nccs2)cc1    478
Clc1ccc(C2(c3ccc(-c4cn[nH]c4)cc3)CCNCC2)cc1    40.5
COc1ccc(Nc2nc(-c3cccc(OC)c3)no2)cc1    34.5
COC(=O)Nc1nc2ccc(SC(C)C)cc2[nH]1    433
CCc1ccc(NC(=O)[C@H](Cc2c[nH]c3ccccc23)NC(=O)[C@@H]2Cc3ccccc3CN2)cc1    111
COc1ccc(NC(=O)c2[nH]c(C)c(C(C)=O)c2C)cc1S(=O)(=O)N1CCCCC1    757
CC(Nc1ccc([S+](=O)([O-])Nc2nccs2)cc1)c1ccccc1 (stereo unspecified)    641
Cc1ccc(-c2csc(Nc3ccc(S(=O)(=O)Nc4nccs4)cc3)n2)cc1C    22
COCCCNC(=O)c1cc2cc(S(=O)(=O)N(C)C)ccc2n1C    77.2
Cc1nc(Sc2nnnn2C)c2c(-c3ccccc3)csc2n1    826
CC(C=CC(=O)NO)=C[C@@H](C)C(=O)c1ccc(N(C)C)cc1    335
Cc1ccc(NS(=O)(=O)c2ccc3c(c2)NC(=O)CO3)cc1C    706
